Hi there, I'd appreciate the recorded % Inhibition of VEGF165-mediated pTyr Activity, Average for every entry that follows.
Target: human KDR (VEGFR2) on cells (human, UniProt P35968 20-1356); further: test concentration or dose not given here
Sequence (P35968 20-1356): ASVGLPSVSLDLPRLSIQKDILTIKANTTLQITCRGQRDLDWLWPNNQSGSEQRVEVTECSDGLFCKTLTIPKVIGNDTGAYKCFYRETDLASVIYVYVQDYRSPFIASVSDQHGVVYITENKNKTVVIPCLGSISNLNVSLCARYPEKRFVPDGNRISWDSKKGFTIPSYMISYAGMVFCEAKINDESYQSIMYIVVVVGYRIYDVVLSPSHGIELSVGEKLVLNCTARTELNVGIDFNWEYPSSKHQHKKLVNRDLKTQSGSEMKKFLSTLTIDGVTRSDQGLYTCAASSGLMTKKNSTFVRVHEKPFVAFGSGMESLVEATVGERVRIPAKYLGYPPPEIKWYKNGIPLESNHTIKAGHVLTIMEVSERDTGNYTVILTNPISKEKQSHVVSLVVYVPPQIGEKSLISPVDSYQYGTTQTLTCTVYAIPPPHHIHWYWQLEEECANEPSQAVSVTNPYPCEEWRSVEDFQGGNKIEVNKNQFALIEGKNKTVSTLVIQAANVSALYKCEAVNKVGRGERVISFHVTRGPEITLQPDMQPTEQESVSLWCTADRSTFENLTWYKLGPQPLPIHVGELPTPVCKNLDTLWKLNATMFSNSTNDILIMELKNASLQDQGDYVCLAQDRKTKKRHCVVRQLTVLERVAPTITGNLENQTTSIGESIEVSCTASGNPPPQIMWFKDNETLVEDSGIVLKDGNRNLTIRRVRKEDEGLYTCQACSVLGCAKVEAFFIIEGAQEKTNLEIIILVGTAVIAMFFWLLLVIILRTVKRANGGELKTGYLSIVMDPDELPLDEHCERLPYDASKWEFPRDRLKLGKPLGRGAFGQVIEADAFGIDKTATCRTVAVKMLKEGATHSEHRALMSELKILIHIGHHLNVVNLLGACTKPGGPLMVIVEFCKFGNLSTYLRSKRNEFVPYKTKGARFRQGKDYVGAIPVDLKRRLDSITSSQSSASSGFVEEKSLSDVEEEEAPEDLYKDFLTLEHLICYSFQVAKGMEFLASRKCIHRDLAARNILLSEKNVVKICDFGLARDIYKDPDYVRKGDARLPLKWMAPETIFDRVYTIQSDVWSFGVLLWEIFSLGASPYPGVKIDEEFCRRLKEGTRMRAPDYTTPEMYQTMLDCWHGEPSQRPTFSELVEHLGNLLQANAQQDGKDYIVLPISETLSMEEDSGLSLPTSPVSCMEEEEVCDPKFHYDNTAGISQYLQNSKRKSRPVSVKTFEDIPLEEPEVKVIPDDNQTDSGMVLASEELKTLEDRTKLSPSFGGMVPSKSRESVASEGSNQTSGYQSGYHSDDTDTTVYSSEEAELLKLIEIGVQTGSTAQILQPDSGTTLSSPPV
Experiment: cell-based or functional assay
Give bare numbers, in %.

The following binders have reported results that may help.
[
  {
    "binder": "anti-KDR monoclonal antibody 21A1 (antibody, V domains shown, Fully human mAb from XenoMouse (IgG2 or IgG4 strain); hybridoma supernatant) VH: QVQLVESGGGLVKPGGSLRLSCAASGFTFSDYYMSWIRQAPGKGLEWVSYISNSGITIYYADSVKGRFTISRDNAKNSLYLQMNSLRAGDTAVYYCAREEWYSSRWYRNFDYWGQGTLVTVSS VL: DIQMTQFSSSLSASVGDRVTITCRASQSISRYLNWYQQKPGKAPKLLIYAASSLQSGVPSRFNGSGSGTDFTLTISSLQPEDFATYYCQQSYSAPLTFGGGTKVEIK",
    "unit_symbol": "%",
    "observed_result": 72
  },
  {
    "binder": "anti-KDR monoclonal antibody 32F4 (antibody, V domains shown, Fully human mAb from XenoMouse (IgG2 or IgG4 strain); hybridoma supernatant) VH: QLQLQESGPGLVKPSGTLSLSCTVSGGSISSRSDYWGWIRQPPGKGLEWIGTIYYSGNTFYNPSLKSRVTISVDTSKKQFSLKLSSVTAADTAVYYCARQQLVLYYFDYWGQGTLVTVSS VL: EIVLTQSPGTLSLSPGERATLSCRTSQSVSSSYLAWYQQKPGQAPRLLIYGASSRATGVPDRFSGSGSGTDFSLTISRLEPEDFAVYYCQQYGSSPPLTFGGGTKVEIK",
    "unit_symbol": "%",
    "observed_result": 73
  },
  {
    "binder": "anti-KDR monoclonal antibody 30D7 (antibody, V domains shown, Fully human mAb from XenoMouse (IgG2 or IgG4 strain); hybridoma supernatant) VH: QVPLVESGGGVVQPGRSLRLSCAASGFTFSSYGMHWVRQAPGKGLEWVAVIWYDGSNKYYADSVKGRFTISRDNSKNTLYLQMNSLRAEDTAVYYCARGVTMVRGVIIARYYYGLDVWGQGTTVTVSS VL: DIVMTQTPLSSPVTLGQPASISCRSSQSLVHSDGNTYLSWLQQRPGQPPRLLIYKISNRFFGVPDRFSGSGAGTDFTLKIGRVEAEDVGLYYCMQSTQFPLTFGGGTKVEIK",
    "unit_symbol": "%",
    "observed_result": 76
  }
]

Would you mind listing % Inhibition of VEGF165-mediated pTyr Activity, Average for each of the following binders?
1. anti-KDR monoclonal antibody 21H9 (antibody, V domains shown, Fully human mAb from XenoMouse (IgG2 or IgG4 strain); hybridoma supernatant) VH: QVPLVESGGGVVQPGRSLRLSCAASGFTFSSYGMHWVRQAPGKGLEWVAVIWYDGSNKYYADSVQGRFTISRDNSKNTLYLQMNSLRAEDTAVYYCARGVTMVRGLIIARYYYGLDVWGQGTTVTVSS VL: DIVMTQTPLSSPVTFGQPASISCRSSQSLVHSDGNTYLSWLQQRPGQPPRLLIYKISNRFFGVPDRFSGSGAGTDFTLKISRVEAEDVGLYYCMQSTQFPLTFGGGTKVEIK
2. anti-KDR monoclonal antibody 33C3 (antibody, V domains shown, Fully human mAb from XenoMouse (IgG2 or IgG4 strain); hybridoma supernatant) VH: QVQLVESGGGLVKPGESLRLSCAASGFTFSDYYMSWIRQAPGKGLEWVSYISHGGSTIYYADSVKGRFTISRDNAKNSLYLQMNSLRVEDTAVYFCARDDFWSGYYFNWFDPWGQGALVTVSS VL: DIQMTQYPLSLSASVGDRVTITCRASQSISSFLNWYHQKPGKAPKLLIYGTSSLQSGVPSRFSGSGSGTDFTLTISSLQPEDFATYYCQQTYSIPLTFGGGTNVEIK
3. anti-KDR monoclonal antibody 24C9 (antibody, V domains shown, Fully human mAb from XenoMouse (IgG2 or IgG4 strain); hybridoma supernatant) VH: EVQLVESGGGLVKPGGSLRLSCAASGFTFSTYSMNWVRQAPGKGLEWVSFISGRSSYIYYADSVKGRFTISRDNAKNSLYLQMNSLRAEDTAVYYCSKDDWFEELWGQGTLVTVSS VL: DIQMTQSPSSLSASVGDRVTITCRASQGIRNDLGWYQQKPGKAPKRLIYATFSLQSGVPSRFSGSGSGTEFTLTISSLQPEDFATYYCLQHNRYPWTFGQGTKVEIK
4. anti-KDR monoclonal antibody 32G7 (antibody, V domains shown, Fully human mAb from XenoMouse (IgG2 or IgG4 strain); hybridoma supernatant) VH: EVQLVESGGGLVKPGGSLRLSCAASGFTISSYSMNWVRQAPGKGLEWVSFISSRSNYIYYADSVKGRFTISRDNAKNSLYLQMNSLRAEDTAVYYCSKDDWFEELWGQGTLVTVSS VL: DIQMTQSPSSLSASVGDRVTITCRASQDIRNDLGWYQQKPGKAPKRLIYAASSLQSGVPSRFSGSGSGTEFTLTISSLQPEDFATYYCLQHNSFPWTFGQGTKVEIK
5. anti-KDR monoclonal antibody 33E1 (antibody, V domains shown, Fully human mAb from XenoMouse (IgG2 or IgG4 strain); hybridoma supernatant) VH: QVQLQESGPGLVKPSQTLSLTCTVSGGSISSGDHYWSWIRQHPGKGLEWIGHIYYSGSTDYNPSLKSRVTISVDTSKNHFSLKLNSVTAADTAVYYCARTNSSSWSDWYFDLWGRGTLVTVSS VL: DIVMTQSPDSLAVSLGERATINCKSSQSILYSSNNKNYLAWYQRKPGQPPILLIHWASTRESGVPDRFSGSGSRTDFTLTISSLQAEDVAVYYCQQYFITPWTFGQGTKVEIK

# output
[70, 71, 46, 44, 73]

Reference source: patent US20100260765A1
